- Assay Details: Antiproliferative activity against bovine BAEC cells after 3 days by Coulter counter method
- Format: functional, cell-based
- Measurement Setup: Bos taurus, 72 h
Measured Endpoint: pIC50
Kindly note that pIC50 refers to -log10 of the concentration in mol/L and answer with the value alone.

Some entries whose results are on file:
>>> quantitative_result("COc1ccc2c3c(c4cc(OC)c(OC)cc4c2c1)CN1CCCC[C@H]1C3")
7.64
>>> quantitative_result("COc1ccc(/C=C\\c2cc(OC)c(OC)c(OC)c2)cc1OP(=O)(O)O [FOSBRETABULIN DISODIUM]")
8.41
>>> quantitative_result("COc1ccc2c3c(c4cc(OC)c(OC)cc4c2c1)CN1CCCC[C@@H]1C3")
7.64

Turning now to a further molecule:
// query pIC50 value for entry COc1ccc2c3c(c4cc(OC)c(OC)cc4c2c1)CN1CCCCC1C3 (racemic)
8.05
